- system_tested: human Chk1 (GST-Chk1) (Homo sapiens)
- Construct: made in house; host or cells: insect cells (baculovirus, Bac-to-Bac)
- procedure_details: Chk1 FlashPlate kinase assay
- Type: biochemical
- condition_summary: 8.7 nM GST-Chk1, 1 uM ATP, 33P incorporation into peptide substrate
compounds and their reported IC50

Below: 10 compounds and their reported IC50.
INSERT INTO assay_data (compound, value_observed) VALUES
  ('Cc1n[nH]c2c1c(=O)n(CCCCNC(=O)OC(C)(C)C)c1ccc(Br)cc21', '< 1 µM'),
  ('Cc1[nH]nc2c1c(=O)n(CCCN)c1ccc(Cl)cc21', '< 1 µM'),
  ('Cc1n[nH]c2c1c(=O)n(CCCNC(=O)c1ccc(Cl)cc1)c1ccc(Cl)cc21', '< 1 µM'),
  ('Cc1n[nH]c2c1c(=O)n(CCN)c1ccc(Br)cc21', '< 1 µM'),
  ('Cc1n[nH]c2c1c(=O)n(CC1CCCN(C(=O)OC(C)(C)C)C1)c1ccc(Br)cc21 (stereo not drawn)', '1 to 20 µM'),
  ('Cc1[nH]nc2c1c(=O)n(CCCN)c1ccc(O)cc21', '< 1 µM'),
  ('Cc1[nH]nc2c1c(=O)n(CCCNC(=O)C1CCCCC1)c1ccccc21', '< 1 µM'),
  ('NCCCn1c(=O)c2c[nH]nc2c2cc(Cl)ccc21', '< 1 µM'),
  ('Cc1[nH]nc2c1c(=O)n(CCNC(=O)C1CCCCC1)c1ccccc21', '1 to 20 µM'),
  ('Cc1[nH]nc2c1c(=O)n(CCCNC(=O)c1ccc(N(C)C)cc1)c1ccccc21', '< 1 µM');

Which IC50 reading was recorded for the compound Cc1[nH]nc2c1c(=O)n(CCCNC(=O)c1ccc(C(F)(F)F)cc1)c1ccccc21 ? < 1 µM

Which IC50 reading was recorded for the compound Cc1n[nH]c2c1c(=O)n(CCO)c1ccccc21 ? < 1 µM

----------
- system_tested: human Chk1 (GST-Chk1) (Homo sapiens)
- Construct: made in house; host or cells: insect cells (baculovirus, Bac-to-Bac)
- Sequence (O14757 1-476): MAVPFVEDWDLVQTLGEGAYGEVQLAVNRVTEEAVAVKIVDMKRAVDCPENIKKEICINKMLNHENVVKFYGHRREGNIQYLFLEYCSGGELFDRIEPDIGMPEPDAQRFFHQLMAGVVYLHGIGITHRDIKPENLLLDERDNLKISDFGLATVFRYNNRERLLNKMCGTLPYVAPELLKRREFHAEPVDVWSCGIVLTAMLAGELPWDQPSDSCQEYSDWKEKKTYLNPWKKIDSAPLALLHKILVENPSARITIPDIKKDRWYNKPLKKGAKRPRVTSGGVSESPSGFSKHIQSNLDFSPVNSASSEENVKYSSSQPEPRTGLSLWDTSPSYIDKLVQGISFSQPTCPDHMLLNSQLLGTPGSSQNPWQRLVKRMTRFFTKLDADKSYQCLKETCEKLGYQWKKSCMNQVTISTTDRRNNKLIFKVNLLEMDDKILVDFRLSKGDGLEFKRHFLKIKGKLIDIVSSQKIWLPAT
- procedure_details: Chk1 FlashPlate kinase assay
- Assay type: biochemical
- condition_summary: 8.7 nM GST-Chk1, 1 uM ATP, 33P incorporation into peptide substrate
- Description: Recombinant human Chk1 was expressed as a fusion protein with glutathione S-transferase at the amino-terminus (GST-Chk1) using standard baculovirus vectors and (Bac-to-Bac®) insect cell expression system purchased from GIBCO™ Invitrogen. Recombinant protein expressed in insect cells was purified using glutathione sepharose (Amersham Biotech) using standard procedures described by the manufacturer. Chk1 FlashPlate® Kinase Assay: […]
pIC50: −log10 of the molar value. Structures can show the parent of a compound that is named as a salt.
measurement_kind: pIC50

INSERT INTO measurements (compound, measurement_kind, value_observed) VALUES
  ('Cc1[nH]nc2c1c(=O)n(CCCN)c1ccc(Br)cc21', 'pIC50', '> 6.00'),
  ('Cc1[nH]nc2c1c(=O)n(CCCNC(=O)c1ccc(Cl)c(Cl)c1)c1ccccc21', 'pIC50', '> 6.00'),
  ('Cc1n[nH]c2c1c(=O)n(CCN(C)C)c1ccccc21 [Example 7, hydrochloride]', 'pIC50', '4.70 to 6.00'),
  ('Cc1n[nH]c2c1c(=O)n(CCCC(=O)O)c1ccc(Br)cc21', 'pIC50', '> 6.00');

Could you now consider this next compound?
Which pIC50 reading was recorded for the compound Cc1n[nH]c2c1c(=O)n(CCNC(=O)OC(C)(C)C)c1ccccc21 ? 4.70 to 6.00

----------
- system_tested: human Chk1 (GST-Chk1) (Homo sapiens, UniProt O14757)
- Construct: made in house; host or cells: insect cells (baculovirus, Bac-to-Bac)
- Sequence (O14757 1-476): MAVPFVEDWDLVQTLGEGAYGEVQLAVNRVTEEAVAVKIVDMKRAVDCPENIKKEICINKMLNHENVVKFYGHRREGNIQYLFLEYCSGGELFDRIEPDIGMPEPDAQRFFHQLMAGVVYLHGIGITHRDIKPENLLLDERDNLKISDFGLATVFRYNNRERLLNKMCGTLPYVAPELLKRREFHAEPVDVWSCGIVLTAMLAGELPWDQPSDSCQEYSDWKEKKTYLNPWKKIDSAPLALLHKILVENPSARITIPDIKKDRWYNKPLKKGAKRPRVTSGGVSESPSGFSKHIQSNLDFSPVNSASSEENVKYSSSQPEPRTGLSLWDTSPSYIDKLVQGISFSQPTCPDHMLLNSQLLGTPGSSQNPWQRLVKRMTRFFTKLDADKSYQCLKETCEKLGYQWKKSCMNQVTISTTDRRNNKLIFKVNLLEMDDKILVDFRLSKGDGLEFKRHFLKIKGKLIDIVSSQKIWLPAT
- procedure_details: Chk1 FlashPlate kinase assay
- Assay type: biochemical
- condition_summary: 8.7 nM GST-Chk1, 1 uM ATP, 33P incorporation into peptide substrate
pIC50: −log10 of the molar value.
measurement_kind: pIC50

Below: 5 compounds and their reported pIC50.
INSERT INTO assay_data (compound, measurement_kind, value_observed) VALUES
  ('Cc1n[nH]c2c1c(=O)n(Cc1cccnc1)c1ccccc21', 'pIC50', '4.70 to 6.00'),
  ('Cc1[nH]nc2c1c(=O)n(CCCNC(=O)CN)c1ccccc21', 'pIC50', '> 6.00'),
  ('Cc1[nH]nc2c1c(=O)n(CCNC(=O)N1CCOCC1)c1ccccc21', 'pIC50', '4.70 to 6.00'),
  ('Cc1n[nH]c2c1c(=O)n(CCCN)c1ccccc21', 'pIC50', '> 6.00'),
  ('CC(=O)NCCCn1c(=O)c2c(C)[nH]nc2c2ccccc21', 'pIC50', '> 6.00');

Which pIC50 reading was recorded for the compound Cc1n[nH]c2c1c(=O)n(CCNC(=O)C(Cc1ccccc1)NC(=O)OC(C)(C)C)c1ccccc21 (stereo not drawn) ? 4.70 to 6.00
